The reported measurements were obtained from patent EP4714976A1.

Target under test: T1, human FGFR2b (Kaixia Biotechnology, catalog number FGR-HM1BB) (human, UniProt P21802-3 22-378)
T1 construct: extracellular domain; bought; also called hFGFR2b; human FGFR2b protein
T1 sequence (P21802 other isoform, or with tags, fused parts or gaps): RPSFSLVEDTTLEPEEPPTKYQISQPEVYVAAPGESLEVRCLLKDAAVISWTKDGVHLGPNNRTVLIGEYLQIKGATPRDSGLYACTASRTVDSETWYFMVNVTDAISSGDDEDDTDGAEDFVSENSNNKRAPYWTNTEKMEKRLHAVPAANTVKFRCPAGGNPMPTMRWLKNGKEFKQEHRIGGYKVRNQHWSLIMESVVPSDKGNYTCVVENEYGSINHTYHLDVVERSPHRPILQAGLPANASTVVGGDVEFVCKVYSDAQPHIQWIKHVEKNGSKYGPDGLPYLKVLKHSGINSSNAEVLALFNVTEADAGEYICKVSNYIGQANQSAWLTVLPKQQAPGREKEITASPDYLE
Test name: BLI, antibody on AHC2 sensor
Answer each item with its documented pKd.
Entry type: numeric. Quantity: pKd, the -log10 of concentration in molar units.

Incoming: What does the data say about its pKd? Entry: 3C7-VH3-VL1 (antibody, human IgG1, kappa, V domains shown, humanized IgG1) VH: QVQLVQSGAEVKKPGASVKVSCKASGYIFRNYYIHWVKQAPGQGLEWMGAIYPDNGDTSYNQRFKVRATLTADTSTSTVYMELSSLRSEDTAVYYCARAFTYWGQGTTVTVSS VL: DIQMTQSPSSLSASVGDRVTITCGASENIYGALNWYQQKPGKAPKLLIYGATNLADGVPSRFSGSGSGTDYTLTISSLQPEDVATYYCQNVLSTPYTFGGGTKVEIKR
Outgoing: 8.61

Incoming: Can you check 3C7-VH3-VL3 (antibody, human IgG1, kappa, V domains shown, humanized IgG1) VH: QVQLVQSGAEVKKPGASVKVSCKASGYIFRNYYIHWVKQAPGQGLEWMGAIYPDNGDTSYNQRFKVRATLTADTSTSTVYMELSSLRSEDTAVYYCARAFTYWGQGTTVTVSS VL: DIQMTQSPSSLSASVGDRVTITCGASENIYGALNWYQRKPGKSPKLLIYGATNLADGVPSRFSGSGSGTDYTLTISSLQPEDVATYYCQNVLSTPYTFGGGTKLEIKR next?
Outgoing: 8.61

Incoming: Can you check 3H9-VH3-VL0 (antibody, human IgG1, kappa, V domains shown, humanized IgG1) VH: QVQLVQSGAEVKKPGASVKVSCKASGYTFSFYNMHWVKQAPGQGLEWIGLIYPDNGDTSYNQKFKGRATLTADTSTSTVYMELSSLRSEDTAVYYCARGGLDYWGQGTTVTVSS VL: DIQMTQSPSSLSASVGDRVTITCRASENIYSNLAWYQQKPGKAPKLLIYAATNLADGVPSRFSGSGSGTDFTLTISSLQPEDFATYYCQHFWGTPYTFGGGTKVEIKR next?
Outgoing: 8.50
